System: RXF 393
Assay: NCI tumour cell line growth inhibition, 48 h
The source made the active and inactive calls. No stated cut-off is given here; in the data, active = GI50 up to about 1.1 µM and inactive = higher.
Hello, when you answer, please use one of the following outcomes: y (active), n (inactive)

MOLECULE	TARGET OR SYSTEM	ANSWER LABEL
CC(C)CC1c2[nH]c3ccccc3c2C[C@H]2C(=O)NC(CCC(=O)OC(C)(C)C)C(=O)N12 (stereo not given in full)	RXF 393	n
COc1ccc2c(c1)c1c(n2CCN2CCOCC2)-c2cccc(OC)c2CC1	RXF 393	n
CCOC(=O)c1ccc(NCC#CCN2CCCCC2)cc1	RXF 393	n
NC(=S)N/N=C1\C(=O)N(c2cccc([N+](=O)[O-])c2)C(=O)C1C(=O)Nc1cccc([N+](=O)[O-])c1 (stereo not given)	RXF 393	n
CS(=O)(=O)c1nc(-c2cc3c(c(S(C)(=O)=O)n2)CCC3)cc2c1CCC2	RXF 393	n

Here's the next entry for you.
input: Fill in: this test's call for "CCOC(=O)c1csc(NC(=O)CN2CCCC2)n1" is ___
output: n

The values you see were collected from ChEMBL document CHEMBL1201862.
